# ASSAY_SUMMARY: log D (shake flask, 1-octanol/aqueous buffer)
# Type: physicochemical
# MEASUREMENT_PARAMETERS: pH 7.4, 1-octanol/aqueous buffer
PROPERTY: logD
Please reply with the number alone, leaving off any unit.

**Query** Any idea what its logD is? The molecule is `C[C@@H]1Cc2c(ccc3[nH]ncc23)[C@@H](c2ncc(NC3CN(CCCF)C3)cc2F)N1CC(F)(F)F`
**Result** 3

**Query** Any idea what its logD is? The molecule is `C[C@@H]1Cc2c(ccc3[nH]ncc23)[C@@H](c2ccc(NC3CN(CCCF)C3)cn2)N1CC(C)(C)F`
**Result** 3.2

**Query** Any idea what its logD is? The molecule is `C[C@@H]1Cc2c(ccc3[nH]ncc23)[C@@H](c2ccc(NC3CN(CCCF)C3)cn2)N1CC(F)(F)CO`
**Result** 2

**Query** Any idea what its logD is? The molecule is `COc1cc(NC2CN(CCCF)C2)ccc1[C@@H]1c2ccc3[nH]ncc3c2C[C@@H](C)N1CC(C)(C)F`
**Result** 3.2

**Query** Any idea what its logD is? The molecule is `C[C@@H]1Cc2c(ccc3[nH]ncc23)[C@@H](c2ccc(NC3CN(CCCF)C3)c(F)n2)N1CC(F)(F)F`
**Result** 3

**Query** Any idea what its logD is? The molecule is `C[C@@H]1Cc2c(ccc3[nH]nc(F)c23)[C@@H](c2ccc(NC3CN(CCCF)C3)c(F)n2)N1CC(F)(F)F`
**Result** 3.7

**Query** Any idea what its logD is? The molecule is `C[C@@H]1Cc2c(ccc3[nH]ncc23)[C@@H](c2ccc(NC3CN(CCCF)C3)cn2)N1CC(C)(F)F`
**Result** 2.9

---

# ASSAY_SUMMARY: Thermodynamic solubility (shake-flask)
# Assay type: physicochemical
# MEASUREMENT_PARAMETERS: aqueous phosphate buffer, 25 °C, pH 7.4, aqueous buffer, thermodynamic from solid, aqueous phosphate buffer pH 7.4, 24 hours
PROPERTY: solubility at 24 h

**Query** Any idea what its solubility at 24 h is? The compound is `C[C@@H]1Cc2c(ccc3[nH]ncc23)[C@@H](c2ccc(OC3CN(CCCF)C3)cn2)N1CC(F)(F)CO`
**Result** 633 µM

**Query** Any idea what its solubility at 24 h is? The compound is `C[C@@H]1Cc2c(ccc3[nH]nc(F)c23)[C@@H](c2ccc(NC3CN(CCCF)C3)cn2)N1CC(F)(F)F`
**Result** 692 µM

**Query** Any idea what its solubility at 24 h is? The compound is `COc1cc(NC2CN(CCCF)C2)ccc1[C@@H]1c2ccc3[nH]ncc3c2C[C@@H](C)N1CC1(CF)COC1`
**Result** 634 µM

**Query** Any idea what its solubility at 24 h is? The compound is `COc1cc(NC2CN(CCCF)C2)ccc1[C@]1(C)c2ccc3[nH]ncc3c2C[C@@H](C)N1CC(F)F`
**Result** 172 µM

**Query** Any idea what its solubility at 24 h is? The compound is COCC(C)(F)CN1[C@H](c2ccc(NC3CN(CCCF)C3)cc2OC)c2ccc3[nH]ncc3c2C[C@H]1C (some centres unmarked)
**Result** 991 µM

**Query** Any idea what its solubility at 24 h is? The compound is `C[C@@H]1Cc2c(ccc3[nH]ncc23)[C@@H](c2ncc(NC3CN(CCCF)C3)cc2F)N1CC(F)(F)F`
**Result** 754 µM

**Query** Any idea what its solubility at 24 h is? The compound is `CCOc1cc(NC2CN(CCCF)C2)ccc1[C@@H]1c2ccc3[nH]ncc3c2C[C@@H](C)N1CC1(F)CC1`
**Result** 730 µM

**Query** Any idea what its solubility at 24 h is? The compound is `C[C@@H]1Cc2c(ccc3[nH]ncc23)[C@@H](c2cnc(NC3CN(CCCF)C3)cn2)N1CC(F)F`
**Result** 748 µM

**Query** Any idea what its solubility at 24 h is? The compound is `COCC(F)(F)CN1[C@H](c2ccc(NC3CN(CCCF)C3)cc2OC)c2ccc3[nH]ncc3c2C[C@H]1C`
**Result** 379 µM

**Query** Any idea what its solubility at 24 h is? The compound is `C[C@@H]1Cc2c(ccc3[nH]ncc23)[C@@H](c2ccc(OC3CN(CCCF)C3)cn2)N1CC(F)F`
**Result** 258 µM

**Query** Any idea what its solubility at 24 h is? The compound is `CC1(C)Cc2c(ccc3[nH]ncc23)[C@@H](c2ccc(NC3CN(CCCF)C3)cn2)N1CC(F)F`
**Result** 925 µM

**Query** Any idea what its solubility at 24 h is? The compound is COC[C@](C)(F)CN1[C@H](c2ccc(NC3CN(CCCF)C3)cc2OC)c2ccc3[nH]ncc3c2C[C@H]1C (single isomer, unassigned)
**Result** 897 µM

**Query** Any idea what its solubility at 24 h is? The compound is COC[C@](C)(F)CN1[C@H](c2ccc(OC3CN(CCCF)C3)cc2OC)c2ccc3[nH]ncc3c2C[C@H]1C (single isomer, unassigned)
**Result** 77 µM

**Query** Any idea what its solubility at 24 h is? The compound is `C[C@@H]1Cc2c(ccc3[nH]ncc23)[C@@H](c2cnc(NC3CN(CCCF)C3)cn2)N1CC(F)(F)F`
**Result** 712 µM

---

# ASSAY_SUMMARY: Human plasma protein binding (equilibrium dialysis)
# Type: in vitro ADME
# MEASUREMENT_PARAMETERS: dialysis 18 hours
PROPERTY: Human plasma protein binding (% free)
Reply with just the number (in % free).

**Query** Any idea what its Human plasma protein binding (% free) is? The molecule is COc1cc(NC2CN(CCCF)C2)cnc1[C@@H]1c2ccc3[nH]ncc3c2C[C@@H](C)N1CC(F)(F)F [Example 37]
**Result** 25

**Query** Any idea what its Human plasma protein binding (% free) is? The molecule is C[C@@H]1Cc2c(ccc3[nH]ncc23)[C@@H](c2ncc(NC3CN(CCCF)C3)cc2F)N1CC1(F)CC1 [Example 18]
**Result** 34

**Query** Any idea what its Human plasma protein binding (% free) is? The molecule is COC[C@](C)(F)CN1[C@H](c2ccc(NC3CN(CCCF)C3)cc2OC)c2ccc3[nH]ncc3c2C[C@H]1C (single isomer, unassigned) [Example 15]
**Result** 34

**Query** Any idea what its Human plasma protein binding (% free) is? The molecule is C[C@@H]1Cc2c(ccc3[nH]nc(F)c23)[C@@H](c2ccc(NC3CN(CCCF)C3)cn2)N1CC(F)(F)F [Example 32]
**Result** 6.5

**Query** Any idea what its Human plasma protein binding (% free) is? The molecule is C[C@@H]1Cc2c(ccc3[nH]ncc23)[C@@H](c2ccc(NC3CN(CCCF)C3)cn2)N1CC1(F)CC1 [Example 3]
**Result** 26

**Query** Any idea what its Human plasma protein binding (% free) is? The molecule is COC[C@](C)(F)CN1[C@H](c2ccc(OC3CN(CCCF)C3)cc2OC)c2ccc3[nH]ncc3c2C[C@H]1C (single isomer, unassigned) [Example 12]
**Result** 2.7

**Query** Any idea what its Human plasma protein binding (% free) is? The molecule is C[C@@H]1Cc2c(ccc3[nH]ncc23)[C@@H](c2c(F)cc(NC3CN(CCCF)C3)cc2F)N1CC1(F)CC1 [Example 11]
**Result** 2

---

Give measured Human plasma protein binding (% free) for each item. Keep answers brief.
# ASSAY_SUMMARY: Human plasma protein binding (equilibrium dialysis)
# Format: in vitro ADME
# MEASUREMENT_PARAMETERS: dialysis 18 hours
Reply with just the number (in % free).

**Query** Any idea what its Human plasma protein binding (% free) is? The molecule is C[C@@H]1Cc2c(ccc3[nH]ncc23)[C@@H](c2ccc(NC3CN(CCCF)C3)cc2)N1CC(F)(F)F [Example 27]
**Result** 3.8

**Query** Any idea what its Human plasma protein binding (% free) is? The molecule is COc1cc(NC2CN(CCCF)C2)ccc1[C@]1(C)c2ccc3[nH]ncc3c2C[C@@H](C)N1CC(F)F [Example 45]
**Result** 6.2

**Query** Any idea what its Human plasma protein binding (% free) is? The molecule is COc1cc(NC2CN(CCCF)C2)ccc1[C@@H]1c2ccc3[nH]ncc3c2C[C@@H](C)N1CC(C)F (single isomer, unassigned) [Example 67]
**Result** 19

**Query** Any idea what its Human plasma protein binding (% free) is? The molecule is C[C@@H]1Cc2c(ccc3[nH]ncc23)[C@@H](c2ccc(NC3CN(CCCF)C3)c(F)n2)N1CC(F)(F)F [Example 29]
**Result** 16
